Tested on: HCT-116
testSummary: Cytotoxicity against human HCT116 cells at 10^-6 M after 72 hrs by MTS assay
Type: functional
appliedConditions: HCT-116, 72 h, read-out: GI
Record form. Attribute: inhibition of growth at 1 µM. Fill in for each entry.

{"structure": "COc1ccc(C(=C(COC(C)=O)COC(C)=O)c2cc(OC)c(OC)c(OC)c2)cc1O", "inhibition of growth at 1 µM": "0%"}
{"structure": "COc1cc(C(=C(COC(C)=O)COC(C)=O)c2ccc3c(c2)OCO3)cc(OC)c1OC", "inhibition of growth at 1 µM": "0%"}
{"structure": "COc1cc(/C(=C2\\O[C@@H]([C@H]3COC(C)(C)O3)[C@H]3OC(C)(C)O[C@@H]23)c2cccc([N+](=O)[O-])c2)cc(OC)c1OC", "inhibition of growth at 1 µM": "5%"}
{"structure": "COc1cc(C(=C(COC(C)=O)COC(C)=O)c2ccc3ccccc3c2)cc(OC)c1OC", "inhibition of growth at 1 µM": "0%"}
{"structure": "COc1cc(C(=C(COC(C)=O)COC(C)=O)c2cc(OC)c(OC)c(OC)c2)cc(OC)c1OC", "inhibition of growth at 1 µM": "0%"}

Report inhibition of growth at 1 µM for every entry below.
1. COc1ccc(/C(=C2\O[C@@H]([C@H](O)CO)[C@H]3OC(C)(C)O[C@@H]23)c2cc(OC)c(OC)c(OC)c2)cc1O
2. COc1cc(C(=C(CO)CO)c2cc(OC)c(OC)c(OC)c2)cc(OC)c1OC
3. COc1ccc(/C(=C2/O[C@@H]([C@H]3COC(C)(C)O3)[C@H]3OC(C)(C)O[C@@H]23)c2cc(OC)c(OC)c(OC)c2)cc1O
4. COc1cc(C(=C(CO)CO)c2ccc3ccccc3c2)cc(OC)c1OC
5. COc1cc(/C(=C2/O[C@@H]([C@H](O)CO)[C@H]3OC(C)(C)O[C@@H]23)c2cccc([N+](=O)[O-])c2)cc(OC)c1OC

OUTPUT:
1. 1%
2. 6%
3. 0%
4. 0%
5. 0%
